Each recorded value in this set is attributed to patent US20170334973A1.

# SUBJECT_OF_TEST: T1, SUDV VLP (Sudan virus (SUDV), UniProt Q66814 33-676)
# T1 sequence: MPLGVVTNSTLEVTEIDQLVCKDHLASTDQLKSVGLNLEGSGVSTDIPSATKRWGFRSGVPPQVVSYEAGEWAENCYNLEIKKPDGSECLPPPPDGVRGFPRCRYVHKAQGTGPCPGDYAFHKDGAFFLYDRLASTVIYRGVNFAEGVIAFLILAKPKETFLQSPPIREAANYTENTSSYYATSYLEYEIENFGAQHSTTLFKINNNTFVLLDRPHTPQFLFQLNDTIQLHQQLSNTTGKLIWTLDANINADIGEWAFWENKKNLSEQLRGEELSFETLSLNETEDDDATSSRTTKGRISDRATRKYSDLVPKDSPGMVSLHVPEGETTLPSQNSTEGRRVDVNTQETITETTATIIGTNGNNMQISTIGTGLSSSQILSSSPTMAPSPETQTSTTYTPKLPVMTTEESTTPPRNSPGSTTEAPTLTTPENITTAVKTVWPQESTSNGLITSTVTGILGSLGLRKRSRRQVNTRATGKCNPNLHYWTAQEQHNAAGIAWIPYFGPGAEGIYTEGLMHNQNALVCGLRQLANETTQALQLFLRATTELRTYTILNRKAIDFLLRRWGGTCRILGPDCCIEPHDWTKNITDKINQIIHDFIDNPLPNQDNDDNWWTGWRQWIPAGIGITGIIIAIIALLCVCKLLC
# TEST_SUMMARY: ELISA
Threshold check on EC50: strictly below 100 pM is 1; on or above 100 pM is -1.

Illustrative cases are given below, each with its answer.
[[record]]
binder = "FVM33 (antibody, V domains shown) VH: QVQLVQSGAEVKRPGESLKISCKTSRYSFTSSWIGWVRQMPGKGLEWLGSIYPGDSDTRYNPSFQGHVTISADKSVTTTYLKWSSLKASDTATYYCVKGSETWGQGVLVTVSS VL: QPVLTQPASLSASPGASASLTCTFSGGINVAGYNILWYQQKAGSPPRYLLRYKSDSTKDQGSGVPSRFSGSKDASANTGILRISGLQSEDEADYYCAIGHSSGWIFGGGTRLTVL"
class_name = 1

[[record]]
binder = "FVM20 (antibody, V domains shown) VH: EVQLVESGAEVKRPGESLTISCKTSGYSFTGSWISWVRQMPGKGLEWLGSIYPGDSETKYNPSFQGHVTISADKSVTTTYLKWSSLKASDTATYYCVKGSETWGQGVLVTVSS VL: NFMLTQSASLSASPGASASLTCTFSGGINVAGYHIFWYQQNPGSPPRYLLRYKSDSEKDQGSGVPSRFSGSKDASANTGILRISGLQSEDEADYYCAIGHSSGWIFGGGTRLTVL"
class_name = -1

[[record]]
binder = "FVM27 (antibody, V domains shown) VH: EVQLVQSGAEVKRPGESLKISCKTSGYSFASSWISWVRQMPGKGLEWMGAIDPSDSATRYSPSFQGQVTISADKSISTAYLQWSSLKASDTATYYCVKGSETWGQGVLVTVSS VL: QPVLTQPASLSASPGASASLTCTFSGGINVAGYNILWYQQKAGSPPRYLLRYKSDSTKDQGSGVPSRFSGSKDASANTGILRISGLQSEDEADYYCAIGHSSGWIFGGGTRLIVL"
class_name = -1


State whether 100 pM exceeds EC50 recorded for FVM13 (antibody, V domains shown) VH: EVQLVQSGAEVKRPGESLKISCKTSGYTFTSSWISWVRQMPGKGLEWLGSIYPGDSDTRYNPSFQGHVTISADTSIITTHLQWSSLKASDTATYYCVKGSETWGQGVLVTVSS VL: KPMLTQPTSLSASPGASASLTCTFSGGINVAGYNILWYQQKAGSPPRYLLRYKSDSTKDQGSGVPSRFSGSKDASANTGILRISGLQSEDEADYYCAIGHSSGWIFGGGTRLTVL .
-1

State whether 100 pM exceeds EC50 recorded for FVM12 (antibody, V domains shown) VH: EVQLVQSGAEVKRPGESLTISCKTSEYSFTGSWISWVRQMPGKGLEWMGSIYPGDSDTRYSPSFQGQVTISADKSVTTTYLKWSSLKASDTATYYCVKGSETWGQGVLVTVSS VL: QPVLTQPASLSASLGASASLTCTFSGGINVAGYNILWYQQKPGSPPRFLLRYKSDSDNVQGSGVPSHFSGSKDASTNTGILRISGLQSEDEADYYCAIGHSSGWVFGGGTRLTVL .
-1
